These measurements were taken from PubChem BioAssay AID2060507.

- System: 519858-162-T-J1-PDC complex spheroid viability;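 note: spheroids exposed to compounds for 7 days; 100% = DMSO vehicle control viability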
- assay explanation: Anticancer human tumor 519858-162-T-J1-PDC patient-derived colon adenocarcinoma cell line growth inhibition [GQUAD]
- recorded conditions: second compound 0.316 µM; first compound 10 µM; hits give low values
endpoint: viability, T/C (%)

>>> numeric_result("CC(C)(O)C1CCC(Nc2ccc3ncc(-c4cccc(C(F)(F)F)c4)n3n2)CC1 (stereo not given) + Cc1cnc(CNC(=O)c2c(=O)c3ccc(N4CCCN(C)CC4)nc3n3c2sc2ccccc23)cn1")
31.2
>>> numeric_result("COc1ccc([C@@H](O)c2cc(-c3ncnc4cc(N5CCOCC5)ccc34)c(F)cc2Cl)nn1 + CN(C)c1ccc(Nc2c3ccc(NC(=O)CCN4CCCC4)cc3nc3cc(NC(=O)CCN4CCCC4)ccc23)cc1")
85.8
>>> numeric_result("C=CC(=O)N1CCN(c2nc(=O)n(-c3c(C)ccnc3C(C)C)c3nc(-c4c(O)cccc4F)c(F)cc23)C(C)C1 (stereo not given) + Cc1cnc(CNC(=O)c2c(=O)c3ccc(N4CCCN(C)CC4)nc3n3c2sc2ccccc23)cn1")
76.6
>>> numeric_result("O=c1[nH]cc(F)c(=O)[nH]1 + Cc1[nH]c2ccc(F)cc2c1-c1nc2c3cccnc3c3ncccc3c2[nH]1")
74.9
>>> numeric_result("COc1ccc([C@@H](O)c2cc(-c3ncnc4cc(N5CCOCC5)ccc34)c(F)cc2Cl)nn1 + Cc1[nH]c2ccc(F)cc2c1-c1nc2c3cccnc3c3ncccc3c2[nH]1")
70.2
